Test system: PPARg:RXRa 30nM:10nM, anti-RXR (NR concentration 30 nM, RXRa partner concentration 10 nM)
Experiment Description: PBM binding z-score (relative to random genomic background probes); higher = stronger binding; sequences stand for … in GC…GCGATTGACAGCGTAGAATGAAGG
Quantity Measured: PBM binding z-score
Please give the numeric answer without any surrounding text.

AGAATGAGGTTATACGTAGATCAGGGACGAAAGT; 0.651
AATAAAGGGTCACTAGGCCAGAGTAGGTACGAAT; 3.48
CCTTACGGGTCACTCCAGGTAATAGCATCGGAGT; 1.47
ACTAGCAGGCCAAGTTTGGGTCACACAAACAAAG; -0.154
CGTCCAAGGTCATAGGAGGTCAGTGAAGACAGAT; 2.12

Name the recorded PBM binding z-score of the sequence listed here: `GCTTGCAGATCAAGGTTAAGAAAGACTAAGCTAA` 0.0105

Supply recorded PBM binding z-score for `ATATGTAAGTTAGCTGGGGTCATTCAGACTAGGC` here. 0.721

Note down PBM binding z-score recorded for `TCTCGGAGGACACGAGGGTCAGAGCTTTCCAGAG` 1.75

Report PBM binding z-score for `TATACAGGTTCAAAGGCCAGAGTACGAATGTCGA` 1.9

Return the recorded PBM binding z-score value; entry: `TCTGCTAGGTCAACCATGGTCAGCTAATCTGCTA` 2.15

Identify measured PBM binding z-score associated with `ATATGTAGGTTAGCTGGGGTCATTCAAACTAGGC` 2.92

Report PBM binding z-score, nothing else, for this sequence: `CCGACTGGGGCAGAAAGGCTACCATACCATCCGG` -0.705

Indicate its recorded PBM binding z-score; the sequence in question is `ACTATTAGTTGACATAGGGCAACCGATACGACGC` 0.646

Look up PBM binding z-score of `TCTGCTAGGTCAACGAAGGTCAGCTAATCTGCTA` and report it. 2.3

Quickly give me recorded PBM binding z-score for `GCGACTGCGGCAAAGCAGGTTACCATAAGGTTGG` -0.785

// fetch PBM binding z-score given entry `GGAACGAGGGCAAAGTTGAGAGCATCTGTCGACG` 7.2
